# Target Entity: T1, AFP158/HLA-A*02:01 complex (human)
# T1 construct: flowed as analyte in SPR
# Protocol Notes: SPR, crude scFv captured, pMHC analyte;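 also: pMHC analyte injected at three concentrations, association phase of one hundred seconds, then running buffer for dissociation, rates fitted from both curves, KD derived from the rates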
Property Name: koff (s⁻¹)
Return type: number; implicit unit s⁻¹.

Asked: So what does the record say about koff for AS170036 VL1VH1-57K98I (scFv, also called 11-AS170036 VL1VH1-57K98I) scFv: QSALTQPRSVSGSPGQSVTISCAGTSSDVGSENYVSWYQQHPGKAPKLMIYQVNKRASGVPDRFSGSKSGNTASLTISGLQAEDEADYYCASYRSSDINIVFGGGTKLTVLGGGGSGGGGSGGGGSEVQLVESGGGLVQPGGSLRLSCAASGFTFSSYAMSWVRQAPGKGLEWVSTINSGTGKPYYADSVKGRFTISRDNSKNTLYLQMNSLRAEDTAVYYCAKNFFDGSWFLGPPAMDYWGQGTLVTVSSHHHHHH ?
Given back: 0.004

Asked: Entry under review: AS170036 VL1VH1-57M108A (scFv, also called 28-AS170036 VL1VH1-57M108A) scFv: QSALTQPRSVSGSPGQSVTISCAGTSSDVGSENYVSWYQQHPGKAPKLMIYQVNKRASGVPDRFSGSKSGNTASLTISGLQAEDEADYYCASYRSSDHNIVFGGGTKLTVLGGGGSGGGGSGGGGSEVQLVESGGGLVQPGGSLRLSCAASGFTFSSYAMSWVRQAPGKGLEWVSTINSGTGMPYYADSVKGRFTISRDNSKNTLYLQMNSLRAEDTAVYYCAKNFFDGSWFLAPPAMDYWGQGTLVTVSSHHHHHH . Reported koff?
Given back: 0.004

Asked: May I ask what koff has been recorded for AS170036 VL1VH1-57K108A (scFv, also called 25-AS170036 VL1VH1-57K108A) scFv: QSALTQPRSVSGSPGQSVTISCAGTSSDVGSENYVSWYQQHPGKAPKLMIYQVNKRASGVPDRFSGSKSGNTASLTISGLQAEDEADYYCASYRSSDHNIVFGGGTKLTVLGGGGSGGGGSGGGGSEVQLVESGGGLVQPGGSLRLSCAASGFTFSSYAMSWVRQAPGKGLEWVSTINSGTGKPYYADSVKGRFTISRDNSKNTLYLQMNSLRAEDTAVYYCAKNFFDGSWFLAPPAMDYWGQGTLVTVSSHHHHHH ?
Given back: 0.0018
